Biological target: human Oxytocin (OTR) receptor (Homo sapiens, UniProt P30559)
Construct: expressed in transfected cells
Sequence (P30559 whole entry): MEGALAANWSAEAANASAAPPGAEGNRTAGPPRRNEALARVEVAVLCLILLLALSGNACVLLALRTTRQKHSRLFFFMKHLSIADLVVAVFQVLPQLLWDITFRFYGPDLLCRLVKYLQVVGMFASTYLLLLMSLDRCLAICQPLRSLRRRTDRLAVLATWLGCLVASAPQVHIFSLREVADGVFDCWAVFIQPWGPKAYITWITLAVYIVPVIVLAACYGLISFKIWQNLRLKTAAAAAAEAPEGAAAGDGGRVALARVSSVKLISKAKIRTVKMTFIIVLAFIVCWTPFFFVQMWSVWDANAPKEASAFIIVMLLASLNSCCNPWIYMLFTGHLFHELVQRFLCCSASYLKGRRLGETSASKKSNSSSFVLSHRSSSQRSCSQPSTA
Experiment: Calcium flux assay (FLIPR) in CHO cells expressing human OTR
Assay type: cell-based
Settings: maximum response normalized to endogenous full agonist = 100%
Where a SMILES comes first, the peptide text is derived from it.
Some molecules, each annotated with its measured hOT efficacy.

molecule | readoutUnit | hOT efficacy
CC[C@H](C)[C@@H]1NC(=O)[C@H](Cc2ccc(O)cc2)NC(=O)CCS(=O)(=O)CC[C@@H](C(=O)N[C@@H](CO)C(=O)N[C@@H](CC(C)C)C(=O)NCC(N)=O)NC(=O)[C@H](CC(N)=O)NC(=O)[C@H](CCC(N)=O)NC1=O [Example 25] (HELM PEPTIDE1{Y.I.Q.N.[O=C([C@H](CCS(=O)(=O)CCC(=O)[*:3])N[*:1])[*:2]].S.L.G.[am]}$PEPTIDE1,PEPTIDE1,1:R1-5:R3$$$V2.0) | % | 137
CCC[C@H](NC(=O)[C@@H]1CCS(=O)(=O)CCC(=O)N[C@@H](Cc2ccc(O)cc2)C(=O)N[C@@H]([C@@H](C)CC)C(=O)N[C@@H](CCC(N)=O)C(=O)N[C@@H](CC(N)=O)C(=O)N1)C(=O)N[C@@H](CC(C)C)C(=O)NCC(N)=O [Example 23] (HELM PEPTIDE1{Y.I.Q.N.[O=C([C@H](CCS(=O)(=O)CCC(=O)[*:3])N[*:1])[*:2]].[Nva].L.G.[am]}$PEPTIDE1,PEPTIDE1,1:R1-5:R3$$$V2.0) | % | 123
CC[C@H](C)[C@@H]1NC(=O)[C@H](Cc2ccc(O)cc2)NC(=O)CCS(=O)(=O)CC[C@@H](C(=O)N(CC(=O)NC(C)(C)C(=O)NCC(N)=O)C2CC2)NC(=O)[C@H](CC(N)=O)NC(=O)[C@H](CCC(N)=O)NC1=O [Example 30] (HELM PEPTIDE1{Y.I.Q.N.[O=C([C@H](CCS(=O)(=O)CCC(=O)[*:3])N[*:1])[*:2]].[O=C(CN(C1CC1)[*:1])[*:2]].[Aib].G.[am]}$PEPTIDE1,PEPTIDE1,1:R1-5:R3$$$V2.0) | % | 97

---

Molecular target: human Oxytocin (OTR) receptor (Homo sapiens, UniProt P30559)
Construct: expressed in transfected cells
Assay: Calcium flux assay (FLIPR) in CHO cells expressing human OTR
Format: cell-based
Conditions: CHO; maximum response normalized to endogenous full agonist = 100%; read-out: hOT efficacy
*1 amine or outer side, *2 acyl side, *3 side chain or, on linkers, in order; H or OH if unused. Where a SMILES comes first, the peptide text is derived from it. Bridges are numbered along the chain shown (N, C = ends). [ ]: non-standard residue; d: D form. Hcy(O2-CH2CH2CO) = O=C([C@H](CCS(=O)(=O)CCC(=O)[*:3])N[*:1])[*:2]; Chg = N[C@H](C(=O)O)C1CCCCC1; NcPrGly = O=C(O)CNC1CC1
Below is a list of entries, each paired with its recorded Emax value.
reportedProperty: Emax (%)

compound | readoutUnit | measurement
CC[C@H](C)[C@@H]1NC(=O)[C@H](Cc2ccc(O)cc2)NC(=O)CCS(=O)(=O)CC[C@@H](C(=O)N(C)CC(=O)N[C@@H](Cc2ccc(O)cc2)C(=O)NCC(N)=O)NC(=O)[C@H](CC(N)=O)NC(=O)[C@H](CCC(N)=O)NC1=O [Example 17] (HELM PEPTIDE1{Y.I.Q.N.[O=C([C@H](CCS(=O)(=O)CCC(=O)[*:3])N[*:1])[*:2]].[Sar].Y.G.[am]}$PEPTIDE1,PEPTIDE1,1:R1-5:R3$$$V2.0) | % | 105
CC[C@H](C)[C@@H]1NC(=O)[C@H](Cc2ccc(O)cc2)NC(=O)CCS(=O)(=O)CC[C@@H](C(=O)N2CC[C@H]2C(=O)N[C@@H](CC(C)C)C(=O)NCC(N)=O)NC(=O)[C@H](CC(N)=O)NC(=O)[C@H](CCC(N)=O)NC1=O [Example 4] (HELM PEPTIDE1{Y.I.Q.N.[O=C([C@H](CCS(=O)(=O)CCC(=O)[*:3])N[*:1])[*:2]].[O=C([C@@H]1CCN1[*:1])[*:2]].L.G.[am]}$PEPTIDE1,PEPTIDE1,1:R1-5:R3$$$V2.0) | % | 128
CC[C@H](C)[C@@H]1NC(=O)[C@H](Cc2ccc(O)cc2)NC(=O)CCS(=O)(=O)CC[C@@H](C(=O)N(CC(=O)N[C@H](C(=O)NCC(N)=O)C2CCCCC2)C2CC2)NC(=O)[C@H](CC(N)=O)NC(=O)[C@H](CCC(N)=O)NC1=O [Example 32] (YIQN[Hcy(O2-CH2CH2CO)][NcPrGly][Chg]G-NH2; lactam N-5) | % | 120
